Target: T1, formyl peptide receptor with a C-terminal hexahistidine tag (FPR:C-H6) (human, UniProt P21462 1-350)
T1 construct: Solubilized from membranes and captured on dextran chelate nickel (DCNi) beads; also called C-H6:FPR
T1 sequence: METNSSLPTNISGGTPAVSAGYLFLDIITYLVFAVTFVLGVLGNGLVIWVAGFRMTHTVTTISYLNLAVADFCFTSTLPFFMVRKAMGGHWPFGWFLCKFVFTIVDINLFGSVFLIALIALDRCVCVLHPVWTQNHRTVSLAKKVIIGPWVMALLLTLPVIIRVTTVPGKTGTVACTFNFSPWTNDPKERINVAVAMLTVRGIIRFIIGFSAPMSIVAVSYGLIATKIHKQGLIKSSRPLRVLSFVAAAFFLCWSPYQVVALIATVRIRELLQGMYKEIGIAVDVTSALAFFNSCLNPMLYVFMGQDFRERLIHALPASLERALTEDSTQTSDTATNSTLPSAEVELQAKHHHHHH
Assay: flow cytometry, hexahistidine-tagged FPR on DCNi beads, L^F titrated (FIG. 9E)
pKd: −log10 of the molar value. No end group written: not given here. *: point of attachment. For = O=C*
measured.endpoint: pKd

Consider the binder For-MLFK (also: FITC conjugate, site not given here, all other places print fMLFK-FITC; also called fMLFK-FITC; fluorescent ligand) [formyl-MLFK-FITC] . State its measured pKd.
~8.10
